Listed next: entries and their corresponding TGI.
Test system: SK-OV-3 ovarian
Assay: NCI tumour cell line growth inhibition, 48 h
Note: unit µM is implicit; provide only the numeric part.

Record excerpt, results attached:
CN(CC(=O)N(Cc1ccc(C2CCCCC2)cc1)c1ccc(C(=O)O)cc1)S(=O)(=O)c1c(F)c(F)c(F)c(F)c1F ... 3.8
CC[n+]1c(/C=C/C=C2\N(C)c3ccccc3C2(C)C)sc2ccccc21 ... 13.9
CN(CCCNC(=O)CCOCCOCCOCCNC(=O)Cc1ccc2ccc3cccc4ccc1c2c34)CCCNc1cc(-c2ccc3ccccc3c2)nc2ccccc12 ... 1.2
N#C[C@H](c1nc2ccccc2s1)c1nc2ccccc2nc1Cl ... 73
c1cc2c(cn1)Nc1ccncc1S2 ... 80.6

Attention now shifts to the item below.
Q: Suppose we examine the compound "O=c1[nH]cnc2c1nnn2CCCCCCCCCCCCn1nnc2c(=O)[nH]cnc21" ; what TGI value has been reported?
A: 38.5

====

System: HS 578T breast
Test: NCI tumour cell line growth inhibition, 48 h
Result type: TGI (µM)
Give the quantity in µM, number only.

CC1=C(Nc2ccc(N3CCN(C)CC3)cc2)C(=O)c2cncnc2C1=O ... 55.1

Q: Look at this compound and give its reported TGI. "Cc1nc2ccccc2c(/C=C/c2ccc(Cl)cc2)c1C(=O)/C=C/c1ccc(Cl)cc1"
A: 5.97

Q: Reported TGI, compound "O=c1[nH]cnc2c1nnn2CCCCCCCCCCCCn1nnc2c(=O)[nH]cnc21" : ____
A: 60.7

Q: I have this compound here, "CCc1nc2ccc(NCCN(C)C)c3c(=O)c4ccccc4n1c23" , and I need its recorded TGI.
A: 5.94

Q: Which TGI reading was recorded for the compound CC1C(c2ccc(Cl)cc2)c2cc3c(cc2OC1N1CCOCC1)OCO3 (stereo not given) ?
A: 70.4

====

System: RPMI-8226 leukemia
Experiment: NCI tumour cell line growth inhibition, 48 h
Result type: GI50

Cc1nc2ccccc2c(/C=C/c2ccc(Cl)cc2)c1C(=O)/C=C/c1ccc(Cl)cc1 ... 1200 nM
CN(CC(=O)N(Cc1ccc(C2CCCCC2)cc1)c1ccc(C(=O)O)cc1)S(=O)(=O)c1c(F)c(F)c(F)c(F)c1F ... 2850 nM
O=C(COc1cccc(/C=C2\CSc3ccccc3C2=O)c1)Nc1nccs1 ... 653 nM

Now look at this entry.
Q: For "CCCCCCCCCCCCCC[C@@H](O)[C@H]1CC[C@H]([C@H]2CC[C@H]([C@H](O)CCCCCC[C@@H](O)CC3=C[C@H](C)OC3=O)O2)O1" , what is its reported GI50?
A: 2160 nM

====

System: HCT-15 colon
Test: NCI tumour cell line growth inhibition, 48 h
Result type: TGI

Look over these answered cases.
CCOc1ccc(NC(=O)CC2C(=O)Nc3ccccc3S2(=O)=O)cc1 (centres undefined) ... > 100 µM
COc1cc(N(Cc2ccc3oc(=O)c(-c4ccccc4)nc3c2)Cc2ccc3oc(=O)c(-c4ccccc4)nc3c2)cc(OC)c1OC ... > 10 µM
C[N+]1(CCN[N+]2(C)CCCCC2)CCc2ccccc2C1 (centres undefined) ... > 100 µM
Fc1cccc(F)c1C1SCc2nc3ccc(Cl)cc3n21 (centres undefined) ... > 100 µM
Cc1ccccc1NC(=O)Cc1csc2[n+]1C(=O)/C(=C/c1ccc([N+](=O)[O-])cc1)S2 ... > 100 µM
CN(CC(=O)N(Cc1ccc(C2CCCCC2)cc1)c1ccc(C(=O)O)cc1)S(=O)(=O)c1c(F)c(F)c(F)c(F)c1F ... 3.36 µM
CCOC(=O)c1cnc2c(C)cccc2c1Nc1ccc(C(C)=O)cc1 ... > 100 µM
CC(=O)Oc1ccc(/C=C/C(=O)O[C@@H](C(=O)O)[C@@H](OC(=O)/C=C/c2ccc(OC(C)=O)c(OC(C)=O)c2)C(=O)O)cc1OC(C)=O ... > 100 µM

With those in mind, consider the next compound.
Q: Query (compound): "COc1cc2nc3cc([N+](=O)[O-])ccc3c(NCCNCC(C)(C)O)c2cc1OC" ; field requested: TGI
A: 12.8 µM
